meta.source: patent US20110165066A1

target: T1, human IL-13 variant (R130Q) (human, UniProt P35225 35-146); test: SPR (Biacore), mAb captured, IL-13 as analyte
T1 construct: called R110Q in the assay descriptions (mature numbering); also called h IL-13v; hIL-13v
T1 sequence (P35225 35-146 limits assumed, stated change not applied): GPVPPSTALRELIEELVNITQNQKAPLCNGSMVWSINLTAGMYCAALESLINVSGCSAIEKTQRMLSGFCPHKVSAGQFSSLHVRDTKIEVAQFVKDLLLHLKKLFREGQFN
Attribute measured: koff (s⁻¹)
# number only, unit s⁻¹ dropped from output

### Prompt What value of koff has been reported for the following binder? 29G5 (antibody, V domains shown) VH: QVTLKESGPGILQPSQTLSLTCSFSGFSLSTSDMGVDWIRQPSGKDLEWLAHIWWDDVKRYNPALKSRLTISKDTSSSQVFLMLASVDTADTATYYCARIVSSGYIYYALDYWGQGTSVTVSS VL: DIQMTQTASSLSASLGDRVTISCRASQDIRNYLNWYQRKPDGTVKLLIYYTSRLHSGVPSRFSGSGSGTDYSLTISNLEQEDIATYFCQQGNTLPLTFGGGTKLEIKR
### Response 0.000104
